Reference for the values: PubChem BioAssay (NCI)

- System: 786-0 renal
- Method: NCI-60 one-dose screen, 48 h
- Condition context: 10 µM unless noted
This is part of a sample that, as a whole, favours compounds with a hit. Of some 83,000 tested, about 20% had one in any assay. Activity calls are given as the source filed them. The calls were made as follows: active = growth percent below 10; inactive = the rest.
Classes used: y for active, n for inactive

- Molecule: "N#Cc1cnn(C(=O)c2ccccc2Br)c1NC(=O)c1ccc(Br)cc1Cl"
  Group label: "n"
- Molecule: "Clc1cccc(N/N=C/c2c[nH]c3ccc(Br)cc23)n1"
  Group label: "n"
- Molecule: "CC12CC[C@@H]3[C@]4(C)COC(c5cn[nH]c5-c5ccc(Cl)cc5)O[C@@H]4CC[C@@]3(C)[C@@H]1CC(C1=CCOC1=O)O2 (stereo not given in full)"
  Group label: "n"
- Molecule: "N/C(=N\\c1nc2ccccc2s1)NC(=O)NCCCCCCO"
  Group label: "n"
- Molecule: "COc1ccc(-c2ccnc(SCc3cc4cc(Cl)ccc4[nH]c3=O)n2)cc1"
  Group label: "y"
- Molecule: "C(=C\\c1cc(/C=C/c2ccccc2)c2ccccc2n1)/c1ccccc1"
  Group label: "n"
- Molecule: "CCCCc1c(Nn2cnnn2)no[n+]1[O-]"
  Group label: "n"
- Molecule: "C=C1CCC2C3(C)COC(c4ccccc4)OC3CCC2(C)C1CC(Sc1ccccc1)C1=CCOC1=O (stereo not given)"
  Group label: "n"
- Molecule: "C#CCOc1cc(N(CC)CC)ccc1C(C(=O)NC(C)(C)C)N(C(=O)C1CCc2cc(F)ccc2O1)c1ccc(Br)cc1 (stereo not given)"
  Group label: "n"
- Molecule: "C=C1CCC2C3(C)COC(c4ccccc4F)OC3CCC2(C)C1CC(O)C1=CCOC1=O (stereo not given)"
  Group label: "n"

----------
- Test system: HT29 colon
- Method: NCI-60 one-dose screen, 48 h
- Condition context: 10 µM unless noted
The panel holds about 83,000 compounds, 20% with a hit somewhere; the sample as a whole holds those more often. Calls of active or inactive are those of the source. Rule for the calls: active = growth percent below 10; inactive = the rest.
Classes used: active, inactive

- Smiles str: "COc1ccc2c(c1)C(=N/N=C(\\C)c1ccc(OC)c(S(N)(=O)=O)c1)C(=O)N2"
  Subject of test: "HT29 colon"
  Group label: "inactive"
- Smiles str: "N=C1N=C(SCc2nc3ccccc3[nH]2)NC(=O)/C1=C/c1ccc(Cl)cc1"
  Subject of test: "HT29 colon"
  Group label: "inactive"
- Smiles str: "CN(C)c1nc(NCCNS(=O)(=O)c2ccc(C(=O)/C=C/c3ccc(Cl)cc3)cc2)nc(Nc2ccc(F)cc2)n1"
  Subject of test: "HT29 colon"
  Group label: "active"
- Smiles str: "CN(C)c1nc(NCCNS(=O)(=O)c2ccc(C(=O)/C=C/c3ccc(C(F)(F)F)cc3)cc2)nc(Nc2ccc(F)cc2)n1"
  Subject of test: "HT29 colon"
  Group label: "active"
- Smiles str: "O=C(COc1ccc(NC(=O)Nc2ccccc2)cc1)N=Nc1c(O)[nH]c2ccc([N+](=O)[O-])cc12"
  Subject of test: "HT29 colon"
  Group label: "active"
- Smiles str: "Cc1ccc(NCC(=O)Cn2cc(COc3ccc(C=Nc4cnc5ccccc5c4)cc3)nn2)cc1"
  Subject of test: "HT29 colon"
  Group label: "inactive"
- Smiles str: "Cn1nc(C(F)(F)F)cc1-c1cc(Cl)c(COc2ccc(Cl)cc2)c(-c2ccc(Cl)c(C(F)(F)F)c2)c1O"
  Subject of test: "HT29 colon"
  Group label: "active"
- Smiles str: "O=C(COc1ccc2c(c1)CCCC(=O)N2)NCc1ccccc1"
  Subject of test: "HT29 colon"
  Group label: "inactive"
